Reference for the values: the supplement of paper PMC10567573

B1: LMNB1 (parent)
chain: LYKEELEQTYHAKLENARLSSEMN

Variants of: B1
assay_overview: protein stability index of a GFP-peptide fusion (GPS, HEK-293T) (PSI 1-6); higher = more stable;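 note: lentivirally expressed fusions sorted by FACS into six bins by GFP to DsRed ratio, PSI derived from sequencing read proportions per bin multiplied by bin number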
recorded_conditions: c terminus: a fixed tail appended
Please enter T where protein stability index is greater than or equal to 3, and F where it is lower.

mutation_annotation=T9A class=T
mutation_annotation=E4Y class=F
mutation_annotation=E15W class=F
mutation_annotation=L1I class=F
mutation_annotation=T9W class=T
mutation_annotation=N24I class=F
mutation_annotation=A17D class=T
mutation_annotation=Q8K class=F
mutation_annotation=E5M class=F
mutation_annotation=K13T class=F
mutation_annotation=Y10P class=T
mutation_annotation=N24S class=F
mutation_annotation=M23S class=F
mutation_annotation=S20L class=T
mutation_annotation=H11P class=T
mutation_annotation=E7M class=F
mutation_annotation=L1E class=T
mutation_annotation=S20T class=F
mutation_annotation=N16H class=T
mutation_annotation=L19T class=T
mutation_annotation=L6S class=T
mutation_annotation=E5G class=F
mutation_annotation=N24D class=T
mutation_annotation=E4I class=F
mutation_annotation=L6H class=T
mutation_annotation=L6P class=T
mutation_annotation=E22L class=F
mutation_annotation=E22N class=T
mutation_annotation=A17S class=T
mutation_annotation=S21R class=F
mutation_annotation=E15M class=F
mutation_annotation=H11E class=T
mutation_annotation=K3N class=T
mutation_annotation=L1C class=T
mutation_annotation=K13G class=T
mutation_annotation=E7S class=F
mutation_annotation=L6M class=T
mutation_annotation=Q8R class=F
mutation_annotation=S21G class=F
mutation_annotation=E4D class=F
mutation_annotation=L1Y class=T
